B1: Cytosolic beta-glucosidase, O61594 (parent)
chain: MKLLVVLSLVAVACNASIVRQQRRFPDDFLFGTATASYQIEGAWDEDGKGENIWDYMVHNTPEVIRDLSNGDIAADSYHNYKRDVEMMRELGLDAYRFSLSWARILPTGMANEVNPAGIAFYNNYIDEMLKYNITPLITLYHWDLPQKLQELGGFANPLISDWFEDYARVVFENFGDRVKMFITFNEPREICFEGYGSATKAPILNATAMGAYLCAKNLVTAHAKAYYLYDREFRPVQGGQCGITISVNWFGPATPTPEDEMAAELRRQGEWGIYAHPIFSAEGGFPKELSDKIAEKSAQQGYPWSRLPEFTEEEKAFVRGTSDLIGVNHYTAFLVSATERKGPYPVPSLLDDVDTGSWADDSWLKSASAWLTLAPNSIHTALTHLNNLYNKPVFYITENGWSTDESRENSLIDDDRIQYYRASMESLLNCLDDGINLKGYMAWSLMDNFEWMEGYIERFGLYEVDFSDPARTRTPRKAAFVYKHIIKHRVVDYEYEPETMVMTIDEGH

Variants of: B1
CONDITION DETAILS: Spodoptera frugiperda; pH 6; Thermal; CD; Potassium phosphate 10mM; transition: 2; structure 5CG0; whole UniProt chain shown
# unfolding free energy values compiled below
PARAMETER MEASURED: unfolding free energy (kcal/mol)

MUTATION NAME	PARAMETER MEASURED	NUMBER
N249A	unfolding free energy	22.3
A263F	unfolding free energy	22.8
F251A	unfolding free energy	22.5
Y390A	unfolding free energy	22.9
